experimental.system: human HSV DNA polymerase UL30 (Human herpesvirus 1 (strain 17) (HHV-1) (Human herpes simplex virus 1))
assay.name: HSV polymerase biochemical assay (molecular beacon-based)
Description: Both human CMV DNA polymerase UL54 and human HSV DNA polymerase UL30 were produced as N-terminal MBP fusion of the full length, wild type recombinant proteins in order to enhance soluble expression in insect cell expression system. The proteins were expressed in sf9 insect cells via baculovirus transduction and cells were harvested after 48 hours. […] DNA polymerase activity was measured using a molecular beacon-based assay, as described in Ma et. al. […]
property.name: IC50 (nM)
// note: answer is a bare numeric in nM

// known answers, use as guide
- smiles.str: "CC(C)(C(N)=O)S(=O)(=O)C1(CN2CCn3c(ccc(C(=O)NCc4ccc(Cl)cc4)c3=O)C2=O)CC1"
  reported.value: 18.1
- smiles.str: "CN1CC(S(=O)(=O)C2(CN3CCn4c(ccc(C(=O)NCc5ccc(C#N)cc5)c4=O)C3=O)CC2)C1"
  reported.value: 319
- smiles.str: "CS(=O)(=O)N(CCN1CCn2c(ccc(C(=O)NCc3ccc(Cl)cc3)c2=O)C1=O)C1CC1"
  reported.value: 13600

# input for lookup
stdin: Recorded IC50 of "COCC1(S(=O)(=O)C2(CN3CCn4c(ccc(C(=O)NCc5ccc(C#N)cc5)c4=O)C3=O)CC2)CC1" , please.
stdout: 26
